Provenance of the data: PubChem BioAssay

test summary: resazurin metabolic signal in HepG2 cells – cell-based, resazurin fluorescence, 24 h, PK04 Diversity Set, profiling panel (AID 1172); also: test concentration not given here
setup conditions: HepG2 viability, higher = more signal
Reported z-score values for a set of molecules
Output: the number by itself.

These solved cases illustrate the format of a correct answer.
CN1C(=O)C2C=CC(C(O)c3ccc(F)cc3)N(N(c3ccccc3)c3ccccc3)C2C1=O (stereo not drawn); -0.898
CN1C(=O)C2C=CC(C(O)c3ccccc3)N(N3CCCCC3)C2C1=O (stereo not drawn); -0.894

Now examine the next entry.
z-score in this record for C=C(CCCC)C(=O)CC[C@H](OC(=O)c1cccnc1)c1ccc(OCCO)cc1 : -0.91

* * *

test summary: probe aNOTCH2 binding on compound microarray – biochemical, small-molecule microarray, 635/667 nm fluorescence, primary screen (AID 1121);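 also: score merges feature fluorescence read at 667 nm with its signal to noise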
setup conditions: higher = more signal
Reported composite z-score values for a set of molecules
Output: the number by itself.

C=CC[C@]1(C(=O)NCc2ccccc2)N=C(c2ccc(OCCCO)cc2)O[C@H]1c1ccccc1CN=[N+]=[N-]; -0.104
COc1ccc(CCNC(=O)[C@@]2(C)c3ccccc3C(=O)N(c3ccc(C)cn3)[C@H]2c2ccc(CO)cc2)cc1; -0.0956
O=C1NC(=O)C2C1C=CC(C(O)c1ccc(-c3ccccc3)s1)N2Nc1ccc(Cl)cc1Cl (stereo not given); -0.0611
CO[C@H]1O[C@H](CO)[C@@H](OC(=O)Nc2ccc(Br)cc2)[C@@H]2OC(=O)[C@H](Cc3cccc(Br)c3)C/C=C/C[C@@H](Cc3cccc(Br)c3)C(=O)O[C@@H]12; -0.129

composite z-score in this record for CCOc1ccc(N2C(=O)CSC2c2cccc([N+](=O)[O-])c2)cc1 (stereo not given) : -0.14

* * *

experimental system: NADPH oxidase 2 (Homo sapiens) (UniProt P04839)
Sequence (P04839 whole entry, looked up): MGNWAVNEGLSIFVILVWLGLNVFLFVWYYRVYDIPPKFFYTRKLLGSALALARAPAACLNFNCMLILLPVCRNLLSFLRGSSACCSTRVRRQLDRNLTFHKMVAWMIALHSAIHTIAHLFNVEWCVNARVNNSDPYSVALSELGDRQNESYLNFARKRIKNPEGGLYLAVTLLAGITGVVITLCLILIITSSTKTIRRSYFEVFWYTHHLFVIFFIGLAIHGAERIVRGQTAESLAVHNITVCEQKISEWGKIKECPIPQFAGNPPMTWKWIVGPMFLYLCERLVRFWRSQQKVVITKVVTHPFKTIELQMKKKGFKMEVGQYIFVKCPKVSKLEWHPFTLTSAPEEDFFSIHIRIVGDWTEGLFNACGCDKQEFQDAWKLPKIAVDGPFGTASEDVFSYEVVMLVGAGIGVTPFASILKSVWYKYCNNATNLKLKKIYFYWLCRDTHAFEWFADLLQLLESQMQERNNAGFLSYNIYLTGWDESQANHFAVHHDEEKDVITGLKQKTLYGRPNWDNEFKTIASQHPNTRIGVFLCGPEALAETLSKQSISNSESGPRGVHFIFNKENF
test summary: compounds shifting NOX2 Amplex Red fluorescence – cell-based, HEK293-NOX2, PMA-stimulated, NOX inhibitor project, primary screen (AID 1159); also: test concentration not given here
setup conditions: 45 min, higher = more signal, called active from +8 up or from −8 down
Active and inactive are the calls of the source.
assay metric: z-score

O=C1O[C@@H](c2ccccc2)[C@@H](c2ccccc2)N2[C@@H](c3ccccc3OCCO)[C@]3(C(=O)Nc4ccc(C#CC5(O)CCCCCC5)cc43)[C@@H](C(=O)N3CCN(c4ncccn4)CC3)[C@H]12; 0.814 (inactive)
CCCCN1CC=CC23O[C@@H]4C=CCCOC(=O)C4[C@H]2C(=O)N(CCCCCO)[C@@H]3C1=O (some centres undefined); 1.28 (inactive)
[N-]=[N+]=Nc1ccccc1C[C@]1(C(=O)NCc2ccccc2)N=C(c2ccc(OCCCO)cc2)O[C@H]1c1ccccc1N=[N+]=[N-]; -1.87 (inactive)

Observed z-score, NADPH oxidase 2 (Homo sapiens) (UniProt P04839), COC(=O)[C@@]1(Cc2ccccc2)[C@H]2c3cc(C(=O)N(C)C)n(Cc4ccc(OC)c(OC)c4)c3C[C@H]2CN1C(=O)c1ccccc1 : -0.415 (inactive)

* * *

Reported composite z-score values for a set of compounds
Test system: Sonic hedgehog protein (Shh)
test summary: Sonic hedgehog microarray binding compounds – biochemical, small-molecule microarray, 635/667 nm fluorescence, primary screen (AID 1151);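 also: Shh protein binding to compounds spotted on small-molecule microarray slides; score combines spot fluorescence intensity with signal-to-noise across triplicate slides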
setup conditions: 635 nm fluorescence, higher = more signal

COc1cc2c(cc1O)C(c1cccs1)N(Cc1cccc(OC(F)(F)F)c1)CC2 (stereo not given); 0.251
COc1cc2c(cc1O)C=[N+](Cc1cc3c(cc1Br)OCO3)CC2; -0.216
O=C1C2C=CC(C(O)C=Cc3ccc([N+](=O)[O-])cc3)N(n3cnnc3)C2C(=O)N1Cc1ccccc1 (stereo not given); 0.287
NCCCCCNC(=O)[C@H]1C[C@H]2C(=O)N[C@@H](Cc3ccccc3)C(=O)N2[C@H]1c1cccc(OCCO)c1; 0.102
O=C1NC(=O)C2C1C=CC(C(O)C1CC=CCC1)N2Nc1ccccn1 (stereo not given); 0.682
C=C(C(=O)CC[C@H](OC(C)=O)c1ccccc1OCCO)C(C)C; 2.19
CN(C)CCCCCCNC(=O)[C@@H]1C[C@@H]2C(=O)N[C@@H](CCCC[N+](C)(C)C)C(=O)N2[C@@H]1c1ccc(O)cc1; 1.66
O=C1[C@H]2C=C(I)[C@H](C[C@@H]2OCCCCO)[C@@]12CO2; 0.745
COC(=O)[C@@]1(Cc2ccc(OC)cc2)[C@H]2c3cc(C(=O)N4CCCC4)n(CCCNc4ncc(C(F)(F)F)cc4Cl)c3C[C@H]2CN1C(=O)c1ccccc1; -0.418

Now examine the next entry.
Observed composite z-score, Sonic hedgehog protein (Shh), NC(=O)NCC#Cc1ccc2c(c1)[C@]1(C(=O)N2)[C@H](C(=O)O)[C@H]2C(=O)O[C@H](c3ccccc3)[C@H](c3ccccc3)N2[C@@H]1c1ccc(O)cc1 : 1.02
